Every entry's value here was drawn from patent US4400387A.

Target: adenosine deaminase obtained from calf intestine (Bos taurus)
Construct: purchased
Sequence (P56658 1-363): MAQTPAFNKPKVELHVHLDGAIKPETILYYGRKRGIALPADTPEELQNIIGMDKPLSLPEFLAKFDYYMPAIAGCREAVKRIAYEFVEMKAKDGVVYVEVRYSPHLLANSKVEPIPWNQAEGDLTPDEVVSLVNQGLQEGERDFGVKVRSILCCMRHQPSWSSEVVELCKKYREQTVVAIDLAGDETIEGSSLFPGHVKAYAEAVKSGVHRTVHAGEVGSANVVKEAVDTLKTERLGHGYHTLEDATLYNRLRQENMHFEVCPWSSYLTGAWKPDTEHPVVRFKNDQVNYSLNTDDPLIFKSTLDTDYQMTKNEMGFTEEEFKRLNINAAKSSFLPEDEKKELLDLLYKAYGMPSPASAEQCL
Test: Inhibition of the action of adenosine deaminase in vitro (decrease in absorbance at 265 nm)
Assay type: biochemical
Conditions: 5.10^-5 M adenosine; pH 7.4, 30° C.
READOUT_NAME: Inhibition of the action of adenosine deaminase in vitro (in %) At 5.10^-5 M adenosine

Quick note, Inhibition of the action of adenosine deaminase in vitro (in %) At 5.10^-5 M adenosine for COc1cc(C(=O)c2c(-c3ccc(F)cc3)cc3ccccn23)ccc1O [4-Fluoro-phenyl H H OCH3] landed at 39%

Quick note, Inhibition of the action of adenosine deaminase in vitro (in %) At 5.10^-5 M adenosine for CC(C)c1c(Br)c2ccccn2c1C(=O)c1ccc(O)c(Br)c1 [Isopropyl Br Br H] landed at 54%

Quick note, Inhibition of the action of adenosine deaminase in vitro (in %) At 5.10^-5 M adenosine for O=C(c1ccc(O)c(Br)c1)c1c(-c2ccccc2)c(Br)c2ccccn12 [Phenyl Br Br H] landed at 88%

Quick note, Inhibition of the action of adenosine deaminase in vitro (in %) At 5.10^-5 M adenosine for O=C(c1ccc(O)c(Cl)c1)c1c(-c2ccccc2)c(Br)c2ccccn12 [Phenyl Br Cl H] landed at 86%

Quick note, Inhibition of the action of adenosine deaminase in vitro (in %) At 5.10^-5 M adenosine for O=C(c1cc(Br)c(O)c(Br)c1)c1c(-c2ccccc2)c(Br)c2ccccn12 [Phenyl Br Br Br] landed at 22%

Quick note, Inhibition of the action of adenosine deaminase in vitro (in %) At 5.10^-5 M adenosine for COc1c(-c2ccccc2)c(C(=O)c2ccc(O)c(Br)c2)n2ccccc12 [Phenyl OCH3 Br H] landed at 91%

Quick note, Inhibition of the action of adenosine deaminase in vitro (in %) At 5.10^-5 M adenosine for COc1c(-c2ccccc2)c(C(=O)c2ccc(O)c(Cl)c2)n2ccccc12 [Phenyl OCH3 Cl H] landed at 82%

Quick note, Inhibition of the action of adenosine deaminase in vitro (in %) At 5.10^-5 M adenosine for CC(C)c1cc2ccccn2c1C(=O)c1cc(Cl)c(O)c(Cl)c1 [Isopropyl H Cl Cl] landed at 76%
